Molecular target: MACROD1
Experiment: pooled miR-30 sensor sort-seq; sequence = guide strand; note: reference of the scale not given here
Settings: shRNA
For each of the sequences below, state its sensor-assay potency score (higher = more potent).
No unit in the answer, please; the number alone is enough.

Query: Respond only with sensor-assay potency score (higher = more potent) recorded for TTCGCCTCCTTCCAGTCGGTGG
Reply: -1.48

Query: Respond only with sensor-assay potency score (higher = more potent) recorded for TGCTTGTCCTTTTTATACCTGG
Reply: -0.621

Query: Respond only with sensor-assay potency score (higher = more potent) recorded for TTGAGCTGCTTGTCCTTTTTAT
Reply: -0.992

Query: Respond only with sensor-assay potency score (higher = more potent) recorded for TTTCTCATTGAGCTGCTTGTCC
Reply: -0.192

###

Molecular target: CAMK2N1
Assay: pooled miR-30 sensor sort-seq; sequence = guide strand
Conditions: shRNA
Think of -0.4 as a floor: if sensor-assay potency score (higher = more potent) stands on it or above, it is yes; beneath it, no.

Query: Given the entry TATCATCTTCAATAACAACCCG , answer whether its sensor-assay potency score (higher = more potent) meets or surpasses -0.4.
Reply: yes

Query: Given the entry TTCAGCACGTCATCAATCCTAT , answer whether its sensor-assay potency score (higher = more potent) meets or surpasses -0.4.
Reply: yes

Query: Given the entry ATCTTCAATAACAACCCGCTTG , answer whether its sensor-assay potency score (higher = more potent) meets or surpasses -0.4.
Reply: no

Query: Given the entry AATAACAACCCGCTTGCTCCGG , answer whether its sensor-assay potency score (higher = more potent) meets or surpasses -0.4.
Reply: no

Query: Given the entry TTGTTGGTGTCCTGCAGGCGGC , answer whether its sensor-assay potency score (higher = more potent) meets or surpasses -0.4.
Reply: no

Query: Given the entry ATCATCTTCAATAACAACCCGC , answer whether its sensor-assay potency score (higher = more potent) meets or surpasses -0.4.
Reply: yes

Query: Given the entry TTTCAGCACGTCATCAATCCTA , answer whether its sensor-assay potency score (higher = more potent) meets or surpasses -0.4.
Reply: yes

Query: Given the entry ATAACAACCCGCTTGCTCCGGC , answer whether its sensor-assay potency score (higher = more potent) meets or surpasses -0.4.
Reply: yes

###

For each of the sequences below, state its sensor-assay potency score (higher = more potent).
Biological target: ARL3
Assay: pooled miR-30 sensor sort-seq; sequence = guide strand
Conditions: shRNA
No unit in the answer, please; the number alone is enough.

Query: Respond only with sensor-assay potency score (higher = more potent) recorded for TTTTGATGTTGAAACCCTGTGT
Reply: 0.456

Query: Respond only with sensor-assay potency score (higher = more potent) recorded for TTCAGAAGAGTGGTCTTGCCAG
Reply: -0.492

Query: Respond only with sensor-assay potency score (higher = more potent) recorded for TACATATATAAGAATATCGGTA
Reply: -0.522

Query: Respond only with sensor-assay potency score (higher = more potent) recorded for TTGACATTTTTGCAGACCCAGT
Reply: -1.64

Query: Respond only with sensor-assay potency score (higher = more potent) recorded for TTCAGATGCAAGCTGCTTCAGA
Reply: -0.224

Query: Respond only with sensor-assay potency score (higher = more potent) recorded for TTTGATGTTGAAACCCTGTGTA
Reply: 0.537

Query: Respond only with sensor-assay potency score (higher = more potent) recorded for AACCTTGTGATTGTACACTTTT
Reply: -0.441

Query: Respond only with sensor-assay potency score (higher = more potent) recorded for ATACATTCAGTTTAAAACCTTG
Reply: -0.514

Query: Respond only with sensor-assay potency score (higher = more potent) recorded for AATCTTTTTCTGTCTGCACTGT
Reply: -0.19

Query: Respond only with sensor-assay potency score (higher = more potent) recorded for TTTTCAAAATAATTCTTCCAGT
Reply: -0.927

Query: Respond only with sensor-assay potency score (higher = more potent) recorded for TAATTCTTCCAGTATGGTCTGA
Reply: 0.485

Query: Respond only with sensor-assay potency score (higher = more potent) recorded for TTTTCTGTCTGCACTGTCGATT
Reply: -0.243
